In this section we review reported growth values for a set of compounds.
# System: SK-MEL-5 melanoma
# method: NCI-60 one-dose screen, 48 h (100 = growth as untreated, 0 = no growth, -100 = all killed)
# measurement-context: 10 µM unless noted
About 83,000 compounds went through this panel and 20% of them were active in at least one assay; those are over-represented in the sample as a whole. Calls of active or inactive are those of the source. The calls were made as follows: active = growth percent below 10; inactive = the rest.

Record excerpt, results attached:
[[record]]
compound = "CC(=O)c1ccc(Br)c([N+](=O)[O-])c1"
tested_target = "SK-MEL-5 melanoma"
result_value = "99.9% (inactive)"

[[record]]
compound = "COc1cc(OC)c(C(=O)/C=C/c2cccc(OC(C)=O)c2)cc1CC=C(C)C"
tested_target = "SK-MEL-5 melanoma"
result_value = "64.2% (inactive)"

[[record]]
compound = "CCOC(=O)c1ccc2c(c1)[n+](=O)c(C(=O)c1ccc3ccccc3c1)c(C(F)(F)F)n2[O-]"
tested_target = "SK-MEL-5 melanoma"
result_value = "-100% (active)"

[[record]]
compound = "COc1ccc(-c2cc(-c3cc4ccccc4oc3=O)n(-c3ccccc3)n2)cc1"
tested_target = "SK-MEL-5 melanoma"
result_value = "94.5% (inactive)"


Now consider the entry below.
Inquiry: Name the recorded growth of the item CC(=O)NC1C(O[C@H]2C[C@H]3[C@@H]4CC=C5C[C@@H](O)CC[C@]5(C)[C@H]4CC[C@]3(C)[C@H]2[C@H](C)C(=O)CCC(C)C)OCC(O)C1O (stereo not given in full) in your answer.
Reply text: 24.8% (inactive)

---

# Tested on: SK-MEL-28 melanoma
# method: NCI-60 one-dose screen, 48 h (100 = growth as untreated, 0 = no growth, -100 = all killed)
# measurement-context: 10 µM unless noted
The panel holds about 83,000 compounds, 20% with a hit somewhere; the sample as a whole holds those more often.
In this section we review reported growth values for a set of compounds.
Your answer is read as %, so omit the unit and give the number.

Record excerpt, results attached:
[[record]]
compound = "Nc1c(C(=O)C[C@@H](N)CO)ccc2c1C(=O)CCO2"
property_name = "growth"
endpoint_unit = "%"
result_value = 39.1

[[record]]
compound = "CCCC(CCC)(C(N)=O)C(=O)O"
property_name = "growth"
endpoint_unit = "%"
result_value = 113

[[record]]
compound = "CC1=C(O)C(=O)CC1"
property_name = "growth"
endpoint_unit = "%"
result_value = 100

[[record]]
compound = "FC(F)(F)c1cc(-c2nnc3n2N=C(Cl)CS3)cc(C(F)(F)F)c1"
property_name = "growth"
endpoint_unit = "%"
result_value = 134

[[record]]
compound = "CCCCCCCCCCCCCCCCCC1=NCCN1CCO"
property_name = "growth"
endpoint_unit = "%"
result_value = 89.4


Inquiry: Name the recorded growth of the item CC(C)c1nc2ccccc2n1CC(=O)N/N=C/c1cccc(O)c1 in your answer.
Reply text: 97.2

Inquiry: Name the recorded growth of the item O=C1/C(=C/N2N=C(c3ccc(Cl)cc3)CC2c2ccccc2O)SC(=S)N1c1cccc(C(F)(F)F)c1 (configuration not stated) in your answer.
Reply text: 73.9

Inquiry: Name the recorded growth of the item COc1cc(NC(=O)CSc2nc3ccc(Cl)cc3c(=O)n2Cc2ccccc2)cc(OC)c1OC in your answer.
Reply text: 78.2

Inquiry: Name the recorded growth of the item C[C@@H]1N=C(c2ccc3ccccc3c2)Nc2nc3ccccn3c2C1=O in your answer.
Reply text: 59.9

Inquiry: Name the recorded growth of the item CCCCCCCCCCCCCC1=NC(C)(C)CN1C(C)C in your answer.
Reply text: -73

Inquiry: Name the recorded growth of the item CCOC(=O)C(Cc1ccccc1)n1c(O)c(/C=N/c2ncc(Cc3ccc(Cl)cc3Cl)s2)sc1=S (configuration not stated) in your answer.
Reply text: 31.8

Inquiry: Name the recorded growth of the item O=C1OC(/C=C/c2ccccc2)=NC/1=C/c1ccccc1[N+](=O)[O-] in your answer.
Reply text: 97.3

Inquiry: Name the recorded growth of the item COc1cc(CN(c2ccc(C)cc2)C2OC(=O)c3ccccc32)cc(OC)c1OC (configuration not stated) in your answer.
Reply text: 51.8

Inquiry: Name the recorded growth of the item CC(C)c1ccc2c(c1)CCC1C2CCCC1(C)NCc1ccccc1 (configuration not stated) in your answer.
Reply text: -32

---

# System: HCC-2998 colon
# method: NCI-60 one-dose screen, 48 h
# measurement-context: 10 µM unless noted
# Experimental: Growth inhibition of the HCC-2998 human tumor cell line is measured as a screen for anti-cancer activity. Cells are grown in 96 well plates and exposed to the test compound for 48 hours. Compounds are tested at a single concentration, which is 10^-5 M for most compounds. The reported endpoint is percent growth (GI% or GIPRCNT), where numbers from 0 - 100% represent growth inhibition, and numbers from -100% - 0 represent cell death. For example, a value of 40 represents 60% growth inhibition. […]
This is part of a sample that, as a whole, favours compounds with a hit. Of some 83,000 tested, about 20% had one in any assay. Calls of active or inactive are those of the source. Rule for the calls: active = growth percent below 10; inactive = the rest.
# valid calls are label 1 for active, label 0 for inactive; nothing else

As a guide, the following entries are already answered.
[[record]]
compound = "COc1cccc(-c2nc3sccn3c2-c2ccnc(NCCN3CCCN(C)S3(=O)=O)n2)c1"
discrete_label = "label 0"

[[record]]
compound = "O=C1OCC2=C1C(c1ccccc1)c1cc3c(cc1N2CCO)CCC3 (stereo not given)"
discrete_label = "label 1"

[[record]]
compound = "CCOC(=O)c1ccc2c(c1)[n+](=O)c(C(=O)c1ccc3ccccc3c1)c(C(F)(F)F)n2[O-]"
discrete_label = "label 1"

[[record]]
compound = "COc1ccc(-c2nn(C(=O)NCCN(C)C)cc2-c2ccncc2)cc1Cl"
discrete_label = "label 0"


Okay, next one:
Inquiry: Hi, do you know how CN1CCCN(CCNc2nccc(-c3c(-c4cccc(O)c4)nc4sccn34)n2)S1(=O)=O came out in this test?
Reply text: label 0

---

# Tested on: TK-10 renal
# method: NCI-60 one-dose screen, 48 h
# measurement-context: 10 µM unless noted
Compounds without any hit were thinned out: in the full panel of roughly 83,000, 20% have a hit. The source made the active and inactive calls. The calls were made as follows: active = growth percent below 10; inactive = the rest.
# valid calls are Yes = active, No = inactive; nothing else

Inquiry: Hi, do you know how COc1ccc(-c2cc(-c3ccc(OC)cc3)c3sc(=O)[nH]c3n2)cc1 came out in this test?
Reply text: No

Inquiry: Hi, do you know how O=C(O)c1ccccc1Oc1cc(-c2ccco2)nc(OCCN2CCOCC2)n1 came out in this test?
Reply text: No

Inquiry: Hi, do you know how O=c1c2cc(Br)cc(Br)c2nc(-c2ccc(Cl)cc2)n1/N=C\c1ccccc1F came out in this test?
Reply text: No

Inquiry: Hi, do you know how COc1nccc2c(Sc3ccccc3)nc(N)nc12 came out in this test?
Reply text: No

Inquiry: Hi, do you know how CCC(=O)OCc1ccc(OC)cc1 came out in this test?
Reply text: No

---

In this section we review reported growth values for a set of molecules.
# System: NCI/ADR-RES ovarian
# method: NCI-60 one-dose screen, 48 h (100 = growth as untreated, 0 = no growth, -100 = all killed)
# measurement-context: 10 µM unless noted
Compounds without any hit were thinned out: in the full panel of roughly 83,000, 20% have a hit.
Your answer is read as %, so omit the unit and give the number.

Record excerpt, results attached:
[[record]]
query_smiles = "COc1ccc(Cl)cc1Nc1nc(C(F)(F)F)ccc1C(=O)NN"
tested_target = "NCI/ADR-RES ovarian"
property_name = "growth"
result_value = 9.26

[[record]]
query_smiles = "CC1(C)CN(CCNc2nccc(-c3c(-c4cccc(O)c4)nc4sccn34)n2)S(=O)(=O)N1"
tested_target = "NCI/ADR-RES ovarian"
property_name = "growth"
result_value = 111


Inquiry: Name the recorded growth of the item CC(C)CCSc1nc(Nc2ccccc2)c(C#N)c(-c2ccc(F)cc2)n1 in your answer.
Reply text: 56.8

Inquiry: Name the recorded growth of the item CCc1c(C)c2ccc(O)c(-c3cc(-c4ccccc4)c(C#N)c(=O)[nH]3)c2oc1=O in your answer.
Reply text: 99.9

Inquiry: Name the recorded growth of the item Clc1cccc(CNc2c3ccccc3nc3ccccc23)c1 in your answer.
Reply text: 26.3

---

# Tested on: 786-0 renal
# method: NCI-60 one-dose screen, 48 h (100 = growth as untreated, 0 = no growth, -100 = all killed)
# measurement-context: 10 µM unless noted
This is part of a sample that, as a whole, favours compounds with a hit. Of some 83,000 tested, about 20% had one in any assay.
Mark criterion not met for growth values under 80%, and criterion met for everything at or above.

As a guide, the following entries are already answered.
[[record]]
compound = "CCOC(=O)C1C(=O)C=C(c2cc(OC)c(OC)c(OC)c2)CC1c1sc(N(C)Cc2ccccc2)nc1Cl (stereo not given)"
tested_target = "786-0 renal"
discrete_label = "criterion met"

[[record]]
compound = "Cc1nc(N)nc2c1CCC(Nc1ccccc1)S2 (stereo not given)"
tested_target = "786-0 renal"
discrete_label = "criterion met"

[[record]]
compound = "CCCCCCCCCCCC1=NC(C)(C)CN1CCO"
tested_target = "786-0 renal"
discrete_label = "criterion not met"

[[record]]
compound = "Cc1c(C(=O)Nc2ccccc2F)sc2c(=O)[nH]cnc12"
tested_target = "786-0 renal"
discrete_label = "criterion met"

[[record]]
compound = "O=C(CCl)Nc1cc(O)c2c(c1)C(=O)c1cccc(O)c1C2=O"
tested_target = "786-0 renal"
discrete_label = "criterion not met"

[[record]]
compound = "CCOC(=O)C#Cc1c(C(=O)OCC)nnn1[C@@H]1O[C@H](COC(C)=O)[C@@H](OC(C)=O)[C@H]1OC(C)=O"
tested_target = "786-0 renal"
discrete_label = "criterion met"

[[record]]
compound = "O=C1OC(/C=C/c2ccccc2)=NC/1=C/c1ccccc1[N+](=O)[O-]"
tested_target = "786-0 renal"
discrete_label = "criterion met"

[[record]]
compound = "O=C(Nc1ccc(-n2ccc3c(NC(=O)c4ccccc4)nccc32)cc1)c1ccc(N2CCOCC2)c(C(F)(F)F)c1"
tested_target = "786-0 renal"
discrete_label = "criterion not met"


Inquiry: Determine whether this compound has growth no lower than 80%: CCNCCCn1c2c(c3ccc(Cl)cc3c1=O)C(=O)c1cc(OC)cnc1-2
Reply text: criterion not met
